Answer each item with its documented EC50.
Biological target: T1, CEACAM5 (R&D Systems, 4128-CM-050) (human, UniProt P06731 35-685)
T1 construct: Immobilised on the ELISA plate; also called human CEACAM5
T1 sequence (looked up): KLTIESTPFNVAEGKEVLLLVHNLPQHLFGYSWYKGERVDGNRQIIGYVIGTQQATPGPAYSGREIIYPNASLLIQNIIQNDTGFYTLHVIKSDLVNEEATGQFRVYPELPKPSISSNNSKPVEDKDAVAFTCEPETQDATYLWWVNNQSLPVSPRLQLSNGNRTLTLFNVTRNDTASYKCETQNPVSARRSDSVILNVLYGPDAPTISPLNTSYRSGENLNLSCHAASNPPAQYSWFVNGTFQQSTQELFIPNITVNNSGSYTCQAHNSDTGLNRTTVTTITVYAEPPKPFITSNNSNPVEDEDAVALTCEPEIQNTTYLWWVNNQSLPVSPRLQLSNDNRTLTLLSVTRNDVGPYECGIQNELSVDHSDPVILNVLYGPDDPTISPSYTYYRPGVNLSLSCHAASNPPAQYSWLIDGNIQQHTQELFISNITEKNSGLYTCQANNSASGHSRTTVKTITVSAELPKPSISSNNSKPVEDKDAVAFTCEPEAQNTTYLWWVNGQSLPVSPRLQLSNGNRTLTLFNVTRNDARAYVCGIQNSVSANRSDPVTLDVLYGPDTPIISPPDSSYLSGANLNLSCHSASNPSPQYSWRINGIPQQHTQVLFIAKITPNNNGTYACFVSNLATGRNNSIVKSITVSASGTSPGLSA
Test: ELISA on immobilised CEACAM5, 4-parameter fit, duplicate
Give bare numbers, in nM.

Example cases with answers are listed next.
>  <binder>
[Gd/DOTA-[2,5-(1,2,3,4-tetrahydroisoquinoline)]-C(═O)-Met-Gly-Lys*-Z2(#N)]p-Fab^2 (Fab, V domains shown, labeling may sit on this chain; sites not stated; labeling portion (MW 1115) on amino groups of the Fab, sites and chain not stated; 1-2 per Fab by MS, also called Ex-No 33; Conjugate No. 33) VH: EVQLVESGGGLVQPGGSLRLSCAASGFNIRDTYMHWVRQAPGKGLEWVARIDPANGNSRYVPKFQGRFTISADTSRNTAYLQMNSLRAEDTAVYYCAPFGYYVSDYAMAYWGQGTLVTVSS VL: DIQLTQSPSSLSASVGDRVTITCRAGESVDIFGVGFLHWYQQKPGKAPKLLIYRASNLESGIPSRFSGSGSRTDFTLTISSLQPEDFATYYCQQTNEDPYTFGQGTKVEIKR

>  <EC50 [nM]>
0.33

$$$$
>  <binder>
(Y-S1-X)p-Fab^2 with Y Gd/4arm-DOTA, S1 spacer (o), X -Met-Gly-Lys*-Z2(#N)- (Fab, V domains shown, labeling may sit on this chain; sites not stated; labeling portion (MW 1304) on amino groups of the Fab, sites and chain not stated; 1-2 per Fab by MS, also called Ex-No 59; conjugate 59) VH: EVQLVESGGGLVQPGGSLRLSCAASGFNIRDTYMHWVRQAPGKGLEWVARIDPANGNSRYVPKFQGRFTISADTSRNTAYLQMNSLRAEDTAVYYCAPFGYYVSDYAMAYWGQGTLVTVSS VL: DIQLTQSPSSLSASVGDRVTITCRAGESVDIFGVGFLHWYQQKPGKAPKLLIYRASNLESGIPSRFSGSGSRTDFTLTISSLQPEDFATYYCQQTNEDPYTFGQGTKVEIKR

>  <EC50 [nM]>
0.3

$$$$
>  <binder>
(Y-S1-X)p-Fab^2 with Y Gd/DOTA, S1 -NH-CH2-(1,3-Ph)-C(═O)-, X -Gly-Tyr*-CH2-C(═O)-NH-(CH2)2-Z1(#N)- (Fab, V domains shown, labeling may sit on this chain; sites not stated; labeling portion (MW 1093) on amino groups of the Fab, sites and chain not stated; 1-3 per Fab by MS, also called Ex-No 14; conjugate 14) VH: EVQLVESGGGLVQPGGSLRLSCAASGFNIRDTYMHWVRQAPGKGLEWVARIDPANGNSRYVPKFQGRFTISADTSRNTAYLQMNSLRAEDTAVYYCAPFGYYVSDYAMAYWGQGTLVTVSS VL: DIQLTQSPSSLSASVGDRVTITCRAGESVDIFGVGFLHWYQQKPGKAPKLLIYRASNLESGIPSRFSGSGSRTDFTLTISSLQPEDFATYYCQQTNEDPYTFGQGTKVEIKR

>  <EC50 [nM]>
0.13

$$$$
>  <binder>
(Y-S1-X)p-Fab^2 with Y Gd/DOTA, S1 -NH-CH2-(1,3-Ph)-C(═O)-, X -Gly-Lys*-Z2(#S)- (Fab, V domains shown, labeling may sit on this chain; sites not stated; labeling portion (MW 1059) on amino groups of the Fab, sites and chain not stated; 1-2 per Fab by MS, also called Ex-No 6; conjugate 6) VH: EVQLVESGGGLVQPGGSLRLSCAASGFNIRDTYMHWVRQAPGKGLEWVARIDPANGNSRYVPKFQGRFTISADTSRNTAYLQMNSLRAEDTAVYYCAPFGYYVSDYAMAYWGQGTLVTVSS VL: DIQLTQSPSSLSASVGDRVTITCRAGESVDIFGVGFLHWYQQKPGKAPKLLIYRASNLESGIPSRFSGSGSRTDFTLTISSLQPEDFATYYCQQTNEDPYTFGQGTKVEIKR

>  <EC50 [nM]>
0.14

$$$$

(Q) // query EC50 value for entry [Gd/DOTA-NH-CH2-(1,3-Ph)-C(═O)-Asp-Gly-Lys*-Z2(#N)]p-Fab^2 (Fab, V domains shown, labeling may sit on this chain; sites not stated; labeling portion (MW 1073) on amino groups of the Fab, sites and chain not stated; 1-3 per Fab by MS, also called Ex-No 11; Conjugate No. 11) VH: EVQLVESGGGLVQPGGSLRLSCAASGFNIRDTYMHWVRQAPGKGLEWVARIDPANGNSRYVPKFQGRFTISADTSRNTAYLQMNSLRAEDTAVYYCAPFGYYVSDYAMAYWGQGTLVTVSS VL: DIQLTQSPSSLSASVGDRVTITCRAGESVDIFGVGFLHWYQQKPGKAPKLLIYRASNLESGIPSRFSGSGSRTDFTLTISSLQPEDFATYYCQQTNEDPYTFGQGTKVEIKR
(A) 0.14
